System name: benzodiazepine rec.
Test summary: Receptor binding: benzodiazepine rec.
Please go through the items and note down their pKd.
Just so you know, pKd here is -log10 of the concentration in molar units; reply with that number alone.

Qu. For Cc1nc2n(n1)-c1ccc(Cl)cc1S(=O)(c1ccccc1)=N2 (racemic) , write its pKd.
Ans. 5.82

Qu. For O=S1(c2ccccc2)=Nc2ncnn2-c2ccc(Cl)cc21 (racemic) , write its pKd.
Ans. 5.46

Qu. For O=S1(c2ccccc2)=Nc2ncnn2-c2cc(Cl)c(Br)cc21 (racemic) , write its pKd.
Ans. 4.00

Qu. For Cc1nc2n(n1)-c1ccc(Cl)cc1S(=O)(c1cccc(Cl)c1)=N2 (racemic) , write its pKd.
Ans. 5.00

Qu. For Cc1nc2n(n1)-c1ccc(Cl)cc1S(=O)(c1ccccc1Cl)=N2 (racemic) , write its pKd.
Ans. 7.70

Qu. For CN1C(=O)CN=C(c2ccccc2)c2cc(Cl)ccc21 [Diazepam, reference compound] , write its pKd.
Ans. 7.19
